# Test system: ZIKV MR766 NS1
# measurement-notes: microbe, parasite or virus in culture
# Type: cell-based, Zika virus
# stated-conditions: Zika virus, HEK293, 48 h, read-out: NS1-IC50
Counter-ions that a name gives are not always drawn.
readout-kind: IC50 (nM)
Report the value in nM with no unit label.

Which IC50 value is on record for CC[C@]1(O)C[C@H]2CN(CCc3c([nH]c4ccccc34)[C@@](C(=O)OC)(c3cc4c(cc3OC)N(C=O)[C@H]3[C@@](O)(C(=O)OC)[C@H](OC(C)=O)[C@]5(CC)C=CCN6CC[C@]43[C@@H]65)C2)C1 [Vincristine sulfate] ?
156

Further, for C/C=C(\C)C(=O)N[C@@H](c1ccccc1)[C@@H](O)C(=O)O[C@H]1C[C@@]2(O)[C@@H](OC(=O)c3ccccc3)[C@@H]3[C@]4(OC(C)=O)CO[C@@H]4C[C@H](O)[C@@]3(C)C(=O)[C@H](OC(C)=O)C(=C1C)C2(C)C [Cephalomannine] ?
221

Further, for CC(C)C[C@H](NC(=O)CNC(=O)c1cc(Cl)ccc1Cl)B1OC(=O)C(CC(=O)O)(CC(=O)O)O1 [Ixazomib citrate] ?
196

Further, for COc1c(C)c2c(c(O)c1C/C=C(\C)CCC(=O)OCCN1CCOCC1)C(=O)OC2 [Mycophenolate mofetil] ?
529

Further, for C=CC[C@@H]1/C=C(\C)C[C@H](C)C[C@H](OC)[C@H]2O[C@@](O)(C(=O)C(=O)N3CCCC[C@H]3C(=O)O[C@H](/C(C)=C/[C@@H]3CC[C@@H](O)[C@H](OC)C3)[C@H](C)[C@@H](O)CC1=O)[C@H](C)C[C@@H]2OC [FK-506] ?
104

Further, for CC[C@H]1CN2CCc3cc(OC)c(OC)cc3[C@@H]2C[C@@H]1C[C@H]1NCCc2cc(OC)c(OC)cc21 [Emetine] ?
114
